Just for reference, ChEMBL document CHEMBL1201862 is where these values come from.

This section presents compounds with their documented AC50 values.
# target: Cytochrome P450 3A4 (Homo sapiens);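 further: CYP3A4 tested as one member of a cytochrome P450 panel screen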
# Sequence (P08684 whole entry): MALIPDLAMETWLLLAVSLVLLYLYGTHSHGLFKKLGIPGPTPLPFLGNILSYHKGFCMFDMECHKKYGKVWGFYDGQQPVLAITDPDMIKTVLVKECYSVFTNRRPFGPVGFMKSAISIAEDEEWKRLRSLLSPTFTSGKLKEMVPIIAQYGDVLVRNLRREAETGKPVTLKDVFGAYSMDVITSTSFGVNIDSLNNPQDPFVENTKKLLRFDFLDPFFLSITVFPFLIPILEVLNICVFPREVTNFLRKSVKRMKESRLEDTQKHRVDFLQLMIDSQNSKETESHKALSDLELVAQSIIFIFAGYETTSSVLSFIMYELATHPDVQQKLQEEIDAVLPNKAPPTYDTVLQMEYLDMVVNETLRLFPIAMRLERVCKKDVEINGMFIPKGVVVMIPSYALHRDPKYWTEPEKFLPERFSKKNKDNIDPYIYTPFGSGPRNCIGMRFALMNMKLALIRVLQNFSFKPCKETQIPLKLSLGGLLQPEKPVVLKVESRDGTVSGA

The following compounds have reported results that may help.
compound	target	AC50
C/C(CCN1CCc2nc(-c3ccccc3)c(-c3ccccc3)cc2C1)=N\OC[C@@H](O)[C@@H]1O[C@@H]2OC(C)(C)O[C@@H]2[C@H]1O	Cytochrome P450 3A4 (Homo sapiens)	3.98 µM (inconclusive)
Cc1ccc(S(=O)(=O)c2cc(C#N)c(O)nc2N)cc1	Cytochrome P450 3A4 (Homo sapiens)	25.1 µM (inconclusive)
C=CCC(NCc1ccco1)c1ccc(OC)cc1 (stereo unspecified)	Cytochrome P450 3A4 (Homo sapiens)	22.4 µM (inconclusive)

Task item: Lookup: AC50 / Cytochrome P450 3A4 (Homo sapiens) / COc1ccc(C(=O)CN2C(=O)NC(C)(c3ccccc3)C2=O)cc1OC (stereo unspecified)
Reply: 4.47 µM (inconclusive)

Task item: Lookup: AC50 / Cytochrome P450 3A4 (Homo sapiens) / Clc1ccc(Sc2cc(N3CCOCC3)nc(-c3ccccc3)n2)cc1
Reply: 15.8 µM (inconclusive)

Task item: Lookup: AC50 / Cytochrome P450 3A4 (Homo sapiens) / COc1ccc(C(=O)N2CCC3(CCCN(Cc4ccccc4OC)C3)CC2)cc1
Reply: 15.8 µM (inconclusive)

====

This section presents compounds with their documented IC50 values.
# target: 26S proteasome non-ATPase regulatory subunit 14 (Homo sapiens, UniProt O00487)
# Sequence (O00487 whole entry): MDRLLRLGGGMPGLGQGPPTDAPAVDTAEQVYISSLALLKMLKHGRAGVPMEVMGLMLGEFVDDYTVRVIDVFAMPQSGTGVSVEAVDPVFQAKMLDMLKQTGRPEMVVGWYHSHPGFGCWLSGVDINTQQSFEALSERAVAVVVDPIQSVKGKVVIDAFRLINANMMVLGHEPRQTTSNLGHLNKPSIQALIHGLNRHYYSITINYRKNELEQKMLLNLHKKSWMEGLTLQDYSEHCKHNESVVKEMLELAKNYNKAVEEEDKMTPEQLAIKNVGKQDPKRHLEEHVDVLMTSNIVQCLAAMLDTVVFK
# experiment description: inhibition of proteasome subunit RPN11 – biochemical, fluorescence polarization, uHTS hits, confirmation (AID 602368)
# Assay type: functional
Activity calls are given as the source filed them.

compound	target	endpoint result
COc1ccc(CNC(=O)c2nnn(CC(=O)Nc3cc(C)cc(C)c3)c2N)cc1	26S proteasome non-ATPase regulatory subunit 14 (Homo sapiens, UniProt O00487)	18.9 µM (active)

Task item: # get_value(readout='IC50', item= COC(=O)c1c(NC(=O)c2ccc(S(=O)(=O)N3CC(C)OC(C)C3)cc2)sc2c1CCN(C)C2 (centres undefined) )
Reply: 29.5 µM (active)

Task item: # get_value(readout='IC50', item= CSc1ccc(NC(=O)CSc2nc3[nH]c(=O)cc(O)c3s2)cc1 )
Reply: 68 µM (active)

Task item: # get_value(readout='IC50', item= COc1cc(/C=C2/C(=O)N(c3cccc(Br)c3)N=C2C)cc(OC)c1O )
Reply: 23.1 µM (active)

====

# target: Ubiquitin-conjugating enzyme E2 N (Homo sapiens, UniProt P61088);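 further: Dose-response confirmation in a TR-FRET assay detecting UBC13-driven polyubiquitin chain formation, inhibition measured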
# Sequence (P61088 whole entry): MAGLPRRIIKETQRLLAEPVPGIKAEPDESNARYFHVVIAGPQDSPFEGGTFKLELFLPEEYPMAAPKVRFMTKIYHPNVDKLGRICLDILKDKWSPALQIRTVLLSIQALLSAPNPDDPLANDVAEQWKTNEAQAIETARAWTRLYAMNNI
# Format: functional
Where a name gives a salt, the structure may show the parent alone. Calls of active or inactive are those of the source.
Would you mind answering with one of these outcomes? YES for active, NO for inactive

compound	class assignment
CCCCCNC(=N)N/N=C/c1c[nH]c2ccc(OC)cc12 [TEGASEROD MALEATE]	YES
NCCCCc1ccc2ccc3cccc4ccc1c2c34	NO
NC(=S)N=Nc1c(O)[nH]c2ccccc12	NO
COc1cc(/C=N/NC(=O)c2sc(N)c(C#N)c2C)ccc1O	NO
COc1ccc(C)cc1NC(=O)c1cc(S(=O)(=O)N2CCCCC2)ccc1N1CCOCC1	NO
CCCOc1ccc(/C=N/NC(=O)CSCc2ccc([N+](=O)[O-])cc2)cc1OCC	YES
O=C(NCCCN1CCN(c2ccc(F)cc2)CC1)C1CCCN(c2ncnc3c2nc2n3CCCCC2)C1 (stereo not drawn)	YES

Moving on to the next compound.
Task item: Give the logged outcome of this assay for the following compound: COc1ccc(C[C@H]2CN3C(=NC[C@@H]3Cc3ccc(O)cc3)N2CCNC(=O)c2ccc(C)c(Br)c2)cc1
Reply: NO
